Answer each item with its documented EC50.
systemUnderTest: mGPR65 (Mus musculus)
Construct: expressed in transfected cells; host or cells: HeLa (ATCC CCL-2), lentiviral transduction, pLX317
Sequence (Q61038 whole entry): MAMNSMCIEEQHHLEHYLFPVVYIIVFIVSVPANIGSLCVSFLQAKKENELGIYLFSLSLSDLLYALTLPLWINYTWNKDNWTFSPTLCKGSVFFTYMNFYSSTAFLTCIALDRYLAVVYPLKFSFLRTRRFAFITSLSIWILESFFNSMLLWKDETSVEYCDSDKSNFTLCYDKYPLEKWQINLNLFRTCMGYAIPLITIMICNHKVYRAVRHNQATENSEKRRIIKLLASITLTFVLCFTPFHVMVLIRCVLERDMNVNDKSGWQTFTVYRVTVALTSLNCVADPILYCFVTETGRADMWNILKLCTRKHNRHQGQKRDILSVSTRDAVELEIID
procedureText: cAMP detection in HeLa expression cell line, mGPR65
Type: cell-based
conditionNotes: mGPR EC50 (uM); NA = no activity
Numbers only, in µM.

Cc1ccc(NC(=O)c2cnn3c(O)cc(-c4cnc(N5CCN(C)CC5)c(Cl)c4)nc23)cc1 [BRD5069] = 0.65
Cc1ccc(NC(=O)c2cnn3c(O)cc(-c4ccc(COC(C)C)cc4)nc23)cc1Cl [BRD5079] = 0.604
Cc1ccc(NC(=O)c2cnn3c(O)cc(-c4ccc(COC(C)C)c(Cl)c4)nc23)cc1 [BRD5059] = 0.505

// each compound listed below needs its EC50
1. COCc1ccc(-c2cc(O)n3ncc(C(=O)Nc4ccc(C)cc4)c3n2)cc1 [BRD2813]
2. Cc1ccc(NC(=O)c2cnn3c(O)cc(-c4ccc(C(N)=O)cc4)nc23)cc1 [BRD5082]
3. Cc1ccc(NC(=O)c2cnn3c(O)cc(-c4ccc(COC(C)C)cc4)nc23)nc1 [BRD5075]

a:
1: 0.693; 2: 12.3; 3: 0.892

----------
Answer each item with its documented Emax.
systemUnderTest: mGPR65 (Mus musculus)
Construct: expressed in transfected cells; host or cells: HeLa (ATCC CCL-2), lentiviral transduction, pLX317
procedureText: cAMP detection in HeLa expression cell line, mGPR65
Assay type: cell-based
conditionNotes: HeLa, 2nd mGPR column pair; relative to 100uM forskolin (100%) and DMSO (0%); NA = no activity; read-out: mGPR Max Activity %
Answers are plain numbers, in %.

Example entries begin here.
CCCc1cc(-c2cc(O)n3ncc(C(=O)Nc4ccc(C)cc4)c3n2)no1 = 55.4
Cc1ccc(NC(=O)c2cnn3c(O)cc(-c4ccc(COC(C)C)cc4)nc23)c(F)c1 = 56
COCc1ccc(-c2cc(O)n3ncc(C(=O)Nc4ccc(C)cc4)c3n2)cc1 = 39.6
Cc1ccc(NC(=O)c2cnn3c(O)cc(-c4ccc(C(=O)NC(C)C)cc4)nc23)cc1 = 32.7
COCc1ccc(-c2cc(O)n3ncc(C(=O)Nc4ccc(C(C)C)cc4)c3n2)cc1 = 31.2

// each molecule listed below needs its Emax
1. Cc1ccc(NC(=O)c2cnn3c(O)cc(-c4ccc(F)cc4)nc23)cc1
2. CCS(=O)(=O)c1ccc(NC(=O)c2cnn3c(O)cc(-c4ccc(COC)cc4)nc23)cc1
3. Cc1ccc(NC(=O)c2cnn3c(O)cc(-c4ccc(F)c(Cl)c4)nc23)cc1
4. Cc1ccc(NC(=O)c2cnn3c(O)cc(-c4ccc(-c5ccccc5)cc4)nc23)cc1
5. Cc1ccc(NC(=O)c2cnn3c(O)cc(-c4ccc(COC(C)C)c(Cl)c4)nc23)cc1

a:
1. 43.8
2. 19.6
3. 37.6
4. 33.1
5. 42.2

// each molecule listed below needs its Emax
1. COc1cc(-c2cc(O)n3ncc(C(=O)Nc4ccc(C)cc4)c3n2)ccc1F
2. Cc1ccc(NC(=O)c2cnn3c(O)cc(-c4cnc(N5CCOCC5)c(Cl)c4)nc23)cc1
3. COCc1ccc(-c2cc(O)n3ncc(C(=O)Nc4ccc(F)cc4)c3n2)cc1
4. COCc1ccc(-c2cc(O)n3ncc(C(=O)Nc4ccc(OC)cc4)c3n2)cc1
5. COc1cccc(-c2cc(O)n3ncc(C(=O)Nc4ccc(C)cc4)c3n2)c1
6. Cc1ccc(NC(=O)c2cnn3c(O)cc(-c4ccc(-c5ccccc5O)cc4)nc23)cc1

a:
[29.4, 51.8, 7.69, 55.6, 58.8, 45.5]
